Reference source for all entries: patent US20170368082A1

Test: Phase 2 toxicokinetics of brincidofovir and cidofovir in plasma
Assay type: in vivo, Sprague-Dawley CD rats
Conditions: male, Sprague-Dawley CD, rat, plasma, intravenous, 1 mg/kg, plasma; brincidofovir 1 mg/kg 2-h IV infusion; male rats; Day 1; 24 h; BLQ imputed as zero; read-out: Imputed Concentration, individual animals
readout_type: concentration at 24 h (ng/mL)
Write it as a number; the unit ng/mL goes unstated.

CCCCCCCCCCCCCCCCOCCCOP(=O)(O)CO[C@H](CO)Cn1ccc(N)nc1=O 0

Form field: reported concentration at 24 h of "Nc1ccn(C[C@@H](CO)OCP(=O)(O)O)c(=O)n1"
0

====

Assay: Phase 2 toxicokinetics of brincidofovir and cidofovir in plasma
Format: in vivo, Sprague-Dawley CD rats
Conditions: female, Sprague-Dawley CD, rat, plasma, intravenous, 1 mg/kg, plasma; brincidofovir 1 mg/kg 2-h IV infusion; female rats; Day 1; 24 h; BLQ imputed as zero; read-out: Imputed Concentration, Mean
concentration at 24 h for assorted molecules
Could you give me the number in ng/mL? Just the number is fine.

molecule	concentration at 24 h, ng/mL
Nc1ccn(C[C@@H](CO)OCP(=O)(O)O)c(=O)n1 [Cidofovir]	0

Could you now consider this next molecule?
# lookup: concentration at 24 h of CCCCCCCCCCCCCCCCOCCCOP(=O)(O)CO[C@H](CO)Cn1ccc(N)nc1=O [Brincidofovir]
0

====

Test: Phase 2 toxicokinetics of brincidofovir and cidofovir in plasma
Assay type: in vivo, Sprague-Dawley CD rats
Settings: female, Sprague-Dawley CD, rat, plasma, intravenous, 15 mg/kg, plasma; 15 mg/kg; female rats; Day 1; 2 h; read-out: IC (Imputed Concentration), individual animals
readout_type: concentration at 2 h (ng/mL)
Quick note: give the figure in ng/mL, leave out the unit.

So what does the record say about concentration at 2 h for CCCCCCCCCCCCCCCCOCCCOP(=O)(O)CO[C@H](CO)Cn1ccc(N)nc1=O [Brincidofovir] ?
2460

====

Assay: Phase 2 toxicokinetics of brincidofovir and cidofovir in plasma
Format: in vivo, Sprague-Dawley CD rats
Details: Sprague-Dawley CD, rat, plasma, iv, 15 mg/kg, twice weekly 15 mg/kg; read-out: Median Tmax
readout_type: Tmax (h)
Your answer is read as h, so omit the unit and give the number.

Entry "CCCCCCCCCCCCCCCCOCCCOP(=O)(O)CO[C@H](CO)Cn1ccc(N)nc1=O" has what Tmax?
2

====

Assay: IV BCV single ascending dose study: plasma BCV and CDV PK
Type: in vivo, human
Details: human, plasma, iv, 50 mg, plasma BCV, Cohort 3, BCV 50 mg 2 h IV infusion, n = 9; read-out: Vss
readout_type: Vd (L)
// units = L; emit number, no label

Give its Vd value. Item: "CCCCCCCCCCCCCCCCOCCCOP(=O)(O)CO[C@H](CO)Cn1ccc(N)nc1=O"
19.5

====

Assay: Phase 2 toxicokinetics of brincidofovir and cidofovir in plasma
Format: in vivo, Sprague-Dawley CD rats
Details: female, Sprague-Dawley CD, rat, plasma, iv, 15 mg/kg, brincidofovir in plasma; 15 mg/kg 2-hour IV infusion, Female rats, Day 7; read-out: Tmax
readout_type: Tmax (h)
Record the value in h, omitting the unit from your answer.

Which Tmax is listed for "CCCCCCCCCCCCCCCCOCCCOP(=O)(O)CO[C@H](CO)Cn1ccc(N)nc1=O" ?
2
